Origin of the recorded values: patent US10428080B2

- target.system: UniProt:Q14164
- experiment.summary: IKKe Biochemical Assay
- conditions.used: read-out: IKKε IC50
Quick reference: IC50 of the listed items.

Field: IC50 (UniProt:Q14164). Entry: CN(C)C(=O)c1ccc(-c2cc3nccc(-c4ccc(OC5CCOCC5)c(C#N)c4)c3o2)c(OC(F)(F)F)c1
< 100 nM

* * *

- target.system: UniProt Q9UHD2
- Sequence (Q9UHD2 1-729): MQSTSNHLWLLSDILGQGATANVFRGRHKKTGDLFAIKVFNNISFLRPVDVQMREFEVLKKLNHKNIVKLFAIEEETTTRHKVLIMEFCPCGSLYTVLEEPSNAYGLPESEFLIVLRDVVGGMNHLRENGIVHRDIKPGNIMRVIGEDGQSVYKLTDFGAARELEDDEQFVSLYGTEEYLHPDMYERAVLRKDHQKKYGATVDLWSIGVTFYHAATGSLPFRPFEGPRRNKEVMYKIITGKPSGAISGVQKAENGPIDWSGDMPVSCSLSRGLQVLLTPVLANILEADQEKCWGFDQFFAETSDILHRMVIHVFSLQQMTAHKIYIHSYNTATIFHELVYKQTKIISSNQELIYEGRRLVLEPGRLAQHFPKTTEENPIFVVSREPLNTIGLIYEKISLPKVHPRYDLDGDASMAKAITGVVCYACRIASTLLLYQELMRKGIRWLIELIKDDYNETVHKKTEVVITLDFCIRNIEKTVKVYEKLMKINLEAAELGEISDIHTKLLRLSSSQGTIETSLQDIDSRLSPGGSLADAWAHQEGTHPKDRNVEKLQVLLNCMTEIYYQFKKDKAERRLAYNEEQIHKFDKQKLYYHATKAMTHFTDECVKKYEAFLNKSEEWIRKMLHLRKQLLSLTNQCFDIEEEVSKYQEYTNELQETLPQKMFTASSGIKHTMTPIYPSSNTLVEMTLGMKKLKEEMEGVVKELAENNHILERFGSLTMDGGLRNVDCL
- experiment.summary: TBK Biochemical Assay
- conditions.used: read-out: TBK1 IC50
Structures can show the parent of a compound that is named as a salt.
Quick reference: IC50 of the listed items.

{"compound": "COc1cc(C(=O)NC2C3COCC32)cnc1-c1cc2nccc(-c3ccc(N4CC[C@@H](F)C4)c(C#N)c3)c2o1 (stereo partly shown) [Compound 466]", "result": "< 0.1 µM"}
{"compound": "COc1cc(C(=O)N(C)C)ccc1-c1cc2nccc(-c3ccc(OC4CCOCC4)c(C#N)n3)c2o1 [Compound 31]", "result": "< 0.1 µM"}
{"compound": "COc1cc(C(=O)N2CC3COCC3C2)ncc1-c1cc2nccc(-c3ccc(NC4CCOCC4)c(C#N)c3)c2o1 (stereo not shown) [Compound 421]", "result": "< 0.1 µM"}
{"compound": "COc1cc(-c2cc3nccc(-c4ccc(NC5CCOCC5)c(C#N)c4)c3o2)cnc1C(=O)N(C)C [Compound 394]", "result": "0.1 to 1 µM"}

// query IC50 value for entry CN(C)C(=O)c1ccc(-c2cc3nccc(-c4ccc(NC5CCOCC5)c(C#N)c4)c3o2)c(F)c1 [Compound 250]
0.1 to 1 µM

// query IC50 value for entry COc1cc(C(=O)N(C)CCO)cnc1-c1cc2nccc(-c3ccc(NC4CCOCC4)c(C#N)n3)c2o1 [Compound 356]
< 0.1 µM

// query IC50 value for entry COc1cc(C(=O)NC2CNCC(F)(F)C2)ccc1-c1cc2nccc(-c3ccc(OC4CCOCC4)c(C#N)c3)c2o1 (stereo not shown) [Compound 98, hydrochloride]
< 0.1 µM

* * *

Quick reference: pIC50 of the listed items.
- target.system: IKKε (Homo sapiens)
- Sequence (Q14164 1-716): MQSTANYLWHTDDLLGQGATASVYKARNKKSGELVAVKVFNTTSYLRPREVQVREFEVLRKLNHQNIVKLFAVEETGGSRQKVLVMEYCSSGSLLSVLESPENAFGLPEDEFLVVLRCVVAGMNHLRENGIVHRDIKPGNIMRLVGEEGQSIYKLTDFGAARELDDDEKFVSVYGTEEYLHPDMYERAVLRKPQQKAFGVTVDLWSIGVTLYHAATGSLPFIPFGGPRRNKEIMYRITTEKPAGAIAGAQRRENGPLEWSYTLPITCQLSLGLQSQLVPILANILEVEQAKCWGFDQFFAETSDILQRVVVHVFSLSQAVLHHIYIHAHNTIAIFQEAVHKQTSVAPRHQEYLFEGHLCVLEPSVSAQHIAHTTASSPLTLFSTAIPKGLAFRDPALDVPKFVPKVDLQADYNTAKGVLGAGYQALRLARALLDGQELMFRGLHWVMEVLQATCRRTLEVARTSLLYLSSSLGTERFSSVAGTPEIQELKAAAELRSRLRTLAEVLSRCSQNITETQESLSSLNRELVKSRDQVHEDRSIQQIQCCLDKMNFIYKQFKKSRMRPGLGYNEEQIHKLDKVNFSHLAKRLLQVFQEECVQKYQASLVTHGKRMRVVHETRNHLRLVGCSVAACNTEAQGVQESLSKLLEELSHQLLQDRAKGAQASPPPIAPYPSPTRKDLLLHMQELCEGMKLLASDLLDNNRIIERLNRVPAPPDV
- experiment.summary: IKKe Biochemical Assay
- conditions.used: read-out: IKKε IC50
pIC50: −log10 of the molar value.

Consider the following illustrative entries.
{"compound": "COc1cc(C(=O)N[C@H]2[C@@H]3C[C@H]2CN(C)C3)ccc1-c1cc2nccc(-c3ccc(OC4CCOCC4)c(C#N)c3)c2o1 (single isomer, unassigned) [Compound 365]", "result": "> 7.00"}
{"compound": "COc1cc(C(=O)N[C@@H]2CN3CCC2CC3)ncc1-c1cc2nccc(-c3ccc(N4CC[C@@H](F)C4)c(C#N)c3)c2o1", "result": "> 7.00"}
{"compound": "COc1cc(C(=O)N(C)C)cnc1-c1cc2nccc(-c3ccc(OC4CCN(C)CC4(F)F)c(C#N)c3)c2o1 (centres unmarked)", "result": "> 7.00"}
{"compound": "COc1cc(-c2cc3nccc(-c4ccc(OC5CCOCC5)c(C#N)c4)c3o2)ncc1C(=O)N(C)C", "result": "> 7.00"}
{"compound": "CN(C)C(=O)c1ccc(-c2cc3nccc(-c4ccc(NC5CCOCC5)c(C#N)c4)c3o2)nc1", "result": "6.00 to 7.00"}
{"compound": "COc1cc(C(=O)N(C)C)ccc1-c1cc2nccc(-c3ccc(OC4CNC4)c(C#N)c3)c2o1", "result": "> 7.00"}
{"compound": "COc1cc(C(=O)N2CCCCN2)ccc1-c1cc2nccc(-c3ccc(OC4CCOCC4)c(C#N)c3)c2o1", "result": "> 7.00"}
{"compound": "COc1cc(C(=O)NC2(CO)COC2)ccc1-c1cc2nccc(-c3ccc(OC4CCOCC4)c(C#N)c3)c2o1", "result": "> 7.00"}
{"compound": "COc1cc(C(=O)NC2CN(C)CCC2O)ccc1-c1cc2nccc(-c3ccc(OC4CCOCC4)c(C#N)c3)c2o1 (centres unmarked)", "result": "> 7.00"}
{"compound": "CC(C)(C)OC(=O)Nc1ccc(-c2cc3nccc(-c4ccc(OC5CCOCC5)c(C#N)c4)c3o2)cc1", "result": "6.00 to 7.00"}

// query pIC50 value for entry COc1cc(-c2cc3nccc(-c4ccc(NC5CCOCC5)c(C#N)c4)c3o2)ncc1C(=O)N(C)C
6.00 to 7.00

// query pIC50 value for entry COc1cc(C(=O)NCC(C)(C)N(C)C)ccc1-c1cc2nccc(-c3ccc(NC4CCOCC4)c(C#N)c3)c2o1
> 7.00

// query pIC50 value for entry COc1cc(C(=O)N(C)CCO)cnc1-c1cc2ncc(OC)c(-c3ccc(OC4CCOCC4)c(C#N)n3)c2o1
6.00 to 7.00

// query pIC50 value for entry COc1cc(C(=O)NC2CCN(C(=O)OC(C)(C)C)C2)ccc1-c1cc2nccc(-c3ccc(NC4CCOCC4)c(C#N)c3)c2o1 (centres unmarked)
> 7.00

* * *

- target.system: IKKε (Homo sapiens)
- experiment.summary: IKKe Biochemical Assay
- conditions.used: read-out: IKKε IC50
Counter-ions that a name gives are not always drawn.
Quick reference: IC50 of the listed items.

Consider the following illustrative entries.
{"compound": "COc1cc(C(=O)N(C)C)ccc1-c1cc2nccc(-c3ccc(NC4CCOC4)c(C#N)c3)c2o1 (stereo not shown) [Compound 7]", "IC50": "< 100 nM"}
{"compound": "COc1cc(C(=O)N2CC3CCC2CO3)ncc1-c1cc2nccc(-c3ccc(OC4CCOCC4)c(C#N)c3)c2o1 (stereo not shown) [Compound 413, hydrochloride]", "IC50": "< 100 nM"}

Field: IC50 (IKKε (Homo sapiens)). Entry: CN(C)C(=O)c1ccc(-c2cc3nccc(-c4ccc(OC5CC(C)(C)NC(C)(C)C5)c(C#N)c4)c3o2)cc1 [Compound 216]
> 5000 nM

Field: IC50 (IKKε (Homo sapiens)). Entry: COc1cc(C(=O)N(C)C)ccc1-c1cc2nccc(-c3ccc(OC4CCN(C(=O)OC(C)(C)C)CC4)c(C#N)c3)c2o1 [Compound 182]
> 5000 nM
